# Tested on: HEK-293T
# EXPERIMENTAL DETAILS: Antiproliferative activity against HEK293T cells with high HGPRT expression incubated for 48 hrs by CellTiter-Glo2 assay
# Type: functional, cell-based
# TEST SETTINGS: Homo sapiens
Listed below: EC50 values for each entry.
Report the value in µM with no unit label.

# count of solved cases: 5
{"columns": ["COMPOUND", "READOUT LABEL", "DISPLAY UNIT", "ENDPOINT RESULT"],
 "data": [
  ["CC(=O)Oc1ccc(COP(=O)(OCc2ccc(OC(C)=O)cc2)OC[C@H]2O[C@@H](n3cnc4c(SCc5ccc(OC(C)=O)cc5)nc(N)nc43)[C@H](O)[C@@H]2O)cc1", "EC50", "µM", 6.7],
  ["Nc1nc2c(ncn2[C@@H]2O[C@H](COP3(=O)OCc4cc(Cl)ccc4O3)[C@@H](O)[C@H]2O)c(=S)[nH]1 (some centres not stated)", "EC50", "µM", 15],
  ["Nc1nc(=S)c2ncn([C@@H]3O[C@H](CO)[C@@H](O)[C@H]3O)c2[nH]1", "EC50", "µM", 4.7],
  ["Nc1nc2[nH]cnc2c(=S)[nH]1", "EC50", "µM", 3.6],
  ["CC(=O)Oc1ccc(COP(=O)(O)OC[C@H]2O[C@@H](n3cnc4c(=S)[nH]c(N)nc43)[C@H](O)[C@@H]2O)cc1", "EC50", "µM", 6.9]
]}

## Input Please report EC50 for the following compound: `CC(C)(C)C(=O)SCCOP(=O)(OCCSC(=O)C(C)(C)C)OC[C@H]1O[C@@H](n2cnc3c(=S)[nH]c(N)nc32)[C@H](O)[C@@H]1O`
## Output 246

## Input Identify the reported EC50 for the following entry. Nc1nc2c(ncn2[C@@H]2O[C@H](COP3(=O)OCc4ccccc4O3)[C@@H](O)[C@H]2O)c(=S)[nH]1 (some centres not stated)
## Output 14

* * *

# Test system: K562
# EXPERIMENTAL DETAILS: Antiproliferative activity against human K562 cells with low HGPRT expression incubated for 48 hrs by CellTiter-Glo2 assay
# Type: functional, cell-based
# TEST SETTINGS: K562, 48 h
READOUT LABEL: EC50
Just the number plus its unit, please.

Examples with their reported EC50 follow.
{"columns": ["MOLECULE", "ENDPOINT RESULT"],
 "data": [
  ["Nc1nc(=S)c2ncn([C@@H]3O[C@H](CO)[C@@H](O)[C@H]3O)c2[nH]1 [THIOGUANOSINE]", "1.3 µM"],
  ["CC(=O)Oc1ccc(COP(=O)(O)OC[C@H]2O[C@@H](n3cnc4c(=S)[nH]c(N)nc43)[C@H](O)[C@@H]2O)cc1", "2.3 µM"],
  ["CCC(CC)COC(=O)[C@H](C)NP(=O)(OC[C@H]1O[C@@H](n2cnc3c(=S)[nH]c(N)nc32)[C@H](O)[C@@H]1O)Oc1ccccc1 (stereo partly drawn)", "92 µM"],
  ["CC(=O)Oc1ccc(COP(=O)(OCc2ccc(OC(C)=O)cc2)OC[C@H]2O[C@@H](n3cnc4c(SCc5ccc(OC(C)=O)cc5)nc(N)nc43)[C@H](O)[C@@H]2O)cc1", "2.6 µM"],
  ["Nc1nc2c(ncn2[C@@H]2O[C@H](COP3(=O)OCc4ccccc4O3)[C@@H](O)[C@H]2O)c(=S)[nH]1 (stereo partly drawn)", "7.2 µM"],
  ["CC(C)(C)C(=O)SCCOP(=O)(OCCSC(=O)C(C)(C)C)OC[C@H]1O[C@@H](n2cnc3c(=S)[nH]c(N)nc32)[C@H](O)[C@@H]1O", "62 µM"],
  ["Nc1nc2[nH]cnc2c(=S)[nH]1 [THIOGUANINE]", "0.74 µM"]
]}

We now examine a further molecule.
## Input Specify measured EC50 for Nc1nc2c(ncn2[C@@H]2O[C@H](COP3(=O)OCc4cc(Cl)ccc4O3)[C@@H](O)[C@H]2O)c(=S)[nH]1 (stereo partly drawn) .
## Output 5.6 µM

Where do the numbers come from? From ChEMBL document CHEMBL5214997.
